- Tgt: α5-GABAA receptor (Homo sapiens, UniProt P18507+P31644)
- Construct: expressed in transfected cells; host or cells: HEK-293 (monoclonal, stably transfected)
- Sequence (P31644 32-462): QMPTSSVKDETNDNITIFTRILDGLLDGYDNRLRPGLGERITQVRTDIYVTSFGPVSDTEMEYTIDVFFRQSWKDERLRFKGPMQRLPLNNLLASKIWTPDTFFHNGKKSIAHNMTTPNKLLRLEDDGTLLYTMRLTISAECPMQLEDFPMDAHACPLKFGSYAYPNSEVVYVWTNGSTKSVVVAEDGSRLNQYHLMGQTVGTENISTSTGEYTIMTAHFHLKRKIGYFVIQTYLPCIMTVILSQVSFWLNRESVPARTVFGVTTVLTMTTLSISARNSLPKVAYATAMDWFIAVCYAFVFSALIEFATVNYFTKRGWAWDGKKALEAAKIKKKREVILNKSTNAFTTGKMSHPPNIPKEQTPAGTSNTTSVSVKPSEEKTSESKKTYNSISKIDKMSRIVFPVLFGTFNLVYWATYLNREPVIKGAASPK
- Sequence (P28472 26-473 partner): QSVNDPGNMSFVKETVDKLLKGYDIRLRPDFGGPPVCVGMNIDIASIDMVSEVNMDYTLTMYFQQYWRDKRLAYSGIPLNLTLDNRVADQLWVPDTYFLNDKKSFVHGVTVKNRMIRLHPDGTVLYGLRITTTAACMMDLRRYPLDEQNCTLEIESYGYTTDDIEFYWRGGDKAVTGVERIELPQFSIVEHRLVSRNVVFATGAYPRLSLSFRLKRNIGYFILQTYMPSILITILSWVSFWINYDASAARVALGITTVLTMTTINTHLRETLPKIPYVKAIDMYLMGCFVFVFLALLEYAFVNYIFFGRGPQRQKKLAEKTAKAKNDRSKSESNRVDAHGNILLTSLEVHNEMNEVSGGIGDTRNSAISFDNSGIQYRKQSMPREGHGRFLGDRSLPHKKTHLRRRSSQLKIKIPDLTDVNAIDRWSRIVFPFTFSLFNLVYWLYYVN
- Sequence (P18507 40-467 isoform P18507-1 limits assumed): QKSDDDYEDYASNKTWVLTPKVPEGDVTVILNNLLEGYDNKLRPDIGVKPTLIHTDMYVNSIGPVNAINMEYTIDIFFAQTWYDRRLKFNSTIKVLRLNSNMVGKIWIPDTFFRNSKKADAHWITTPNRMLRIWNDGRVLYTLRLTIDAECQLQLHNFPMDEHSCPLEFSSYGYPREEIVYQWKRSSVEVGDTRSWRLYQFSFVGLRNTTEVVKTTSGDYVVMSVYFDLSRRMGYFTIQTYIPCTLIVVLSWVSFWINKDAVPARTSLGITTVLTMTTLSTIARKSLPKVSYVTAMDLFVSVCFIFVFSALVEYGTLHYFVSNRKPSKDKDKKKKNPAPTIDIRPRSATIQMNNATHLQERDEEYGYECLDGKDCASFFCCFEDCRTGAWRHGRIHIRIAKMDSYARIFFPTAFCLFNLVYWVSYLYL
- Procedure Details: Whole cell patch clamp, inverse agonism efficacy on GABA-induced current in HEK-293 cells expressing α5-GABAA receptor
- Format: cell-based
- Test Parameters: HEK293; compound 100 nM, GABA 0.05 μM; ratio to reference compound Example 7 in CN106854207A in the same batch
- Experimental: The inventors used electrophysiological methods to determine the inverse agonist efficacy of the substances to be tested. The detailed procedures are as follows: […] (3) Compound concentration: for screening, all compounds were diluted to a final concentration of 100 nM and the concentration of GABA was 0.05 μM. […] The currents were recorded by an EPC-10 amplifier and the PatchMaster software (HEKA). […] Then the current induced by GABA could be detected. […]
Provide the reported Emax at 0.1 µM of each item.
Field: numeric (%). Do not append units.

Field Emax at 0.1 µM (system: α5-GABAA receptor (Homo sapiens, UniProt P18507+P31644)) for entry COCCCNC(=O)c1ccc(COc2nn3c(-c4cc(COC)on4)nnc3c3ccccc23)nc1 = 110

Field Emax at 0.1 µM (system: α5-GABAA receptor (Homo sapiens, UniProt P18507+P31644)) for entry COCc1cc(-c2nnc3c4ccccc4c(OCc4ccc(C(=O)NC5CCC5)cn4)nn23)no1 = 73.7

Field Emax at 0.1 µM (system: α5-GABAA receptor (Homo sapiens, UniProt P18507+P31644)) for entry COCc1cc(-c2nnc3c4ccccc4c(OCc4ccc(C(=O)N5CC(F)(F)C5)cn4)nn23)no1 = 94.6

Field Emax at 0.1 µM (system: α5-GABAA receptor (Homo sapiens, UniProt P18507+P31644)) for entry COCc1cc(-c2nnc3c4ccccc4c(OCc4ccc(C(=O)N5CC(OC)C5)cn4)nn23)no1 = 73.3

Field Emax at 0.1 µM (system: α5-GABAA receptor (Homo sapiens, UniProt P18507+P31644)) for entry COCc1cc(-c2nnc3c4ccccc4c(OCc4ccc(C(=O)N(C)C)cn4)nn23)no1 = 72.1

Field Emax at 0.1 µM (system: α5-GABAA receptor (Homo sapiens, UniProt P18507+P31644)) for entry COCc1cc(-c2nnc3c4ccccc4c(OCc4ccc(C(=O)NC[C@@H]5CCCO5)cn4)nn23)no1 = 74.9

Field Emax at 0.1 µM (system: α5-GABAA receptor (Homo sapiens, UniProt P18507+P31644)) for entry COCc1cc(-c2nnc3c4ccccc4c(OCc4ccc(C(=O)NC56CC(C5)C6)cn4)nn23)no1 = 95.1

Field Emax at 0.1 µM (system: α5-GABAA receptor (Homo sapiens, UniProt P18507+P31644)) for entry CCNC(=O)c1ccc(COc2nn3c(-c4cc(COC)on4)nnc3c3ccccc23)nc1 = 78

Field Emax at 0.1 µM (system: α5-GABAA receptor (Homo sapiens, UniProt P18507+P31644)) for entry COCc1cc(-c2nnc3c4ccccc4c(OCc4ccc(C(=O)N5CCC6(CC5)COC6)cn4)nn23)no1 = 111

Field Emax at 0.1 µM (system: α5-GABAA receptor (Homo sapiens, UniProt P18507+P31644)) for entry COCc1cc(-c2nnc3c4ccccc4c(OCc4ccc(C(=O)NC5CN(C(C)=O)C5)cn4)nn23)no1 = 89.1

Field Emax at 0.1 µM (system: α5-GABAA receptor (Homo sapiens, UniProt P18507+P31644)) for entry COCc1cc(-c2nnc3c4ccccc4c(OCc4ccc(C(=O)N5CCCC5)cn4)nn23)no1 = 78.7

Field Emax at 0.1 µM (system: α5-GABAA receptor (Homo sapiens, UniProt P18507+P31644)) for entry COCc1cc(-c2nnc3c4ccccc4c(OCc4ccc(C(=O)NC(COC)COC)cn4)nn23)no1 = 85.2

Field Emax at 0.1 µM (system: α5-GABAA receptor (Homo sapiens, UniProt P18507+P31644)) for entry COCc1cc(-c2nnc3c4ccccc4c(OCc4ccc(C(=O)NCC5(C)COC5)cn4)nn23)no1 = 118

Field Emax at 0.1 µM (system: α5-GABAA receptor (Homo sapiens, UniProt P18507+P31644)) for entry COCc1cc(-c2nnc3c4ccccc4c(OCc4ccc(C(=O)N[C@@H](C)COC)cn4)nn23)no1 = 90

Field Emax at 0.1 µM (system: α5-GABAA receptor (Homo sapiens, UniProt P18507+P31644)) for entry COCc1cc(-c2nnc3c4ccccc4c(OCc4ccc(C(=O)N5CC6(COC6)C5)cn4)nn23)no1 = 90.2
